Source of measurements: PubChem BioAssay

Assay: reduction of polyQ htt aggregates in cells – imaging, exon1htt(103Q)mCFP cells, high-content imaging, primary screen (AID 483);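 also: compound exposure lasted 3 days before fixation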
Details: exon1htt(103Q)mCFP cell line, aggregate imaging, at 2 µM
The source made the active and inactive calls.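 The calls were made as follows: active = visual image review flags a hit and inhibition of aggregation exceeds 20%; inconclusive = visual hit but inhibition at or below 20%; inactive = no hit on visual image review.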
Choose the fitting class; nothing outside active, inactive is accepted.

Worked cases, answers included:
| compound | group_label |
| --- | --- |
| Cc1nnc(NC(=O)c2ccccc2F)s1 | inactive |
| CCCNC(=O)C1=C(C)C(=O)OC12CCC(C)CC2 (stereo not drawn) | inactive |
| Nc1nc(CSc2nc3ccccc3[nH]2)nc(N2CCOCC2)n1 | inactive |
| CCn1cc(C(=O)NCCC2=CCCCC2)c(=O)c2cc(S(=O)(=O)N(C)C)ccc21 | active |

Ask: In this assay, the call recorded for Cc1nc(N2CCN(c3ncccn3)CC2)c2oc3ccccc3c2n1 was what?
Reply: inactive
